FYI, the data here is from patent US9993566B2.

- Tested System: T1, SEZ6 ECD (Homo sapiens, UniProt Q53EL9)
- T1 construct: SEZ6 extracellular domain (amino acids 1-904); expressed in transfected cells; host or cells: yeast (surface display, Cochran et al. protocol)
- T1 sequence (Q53EL9 20-923): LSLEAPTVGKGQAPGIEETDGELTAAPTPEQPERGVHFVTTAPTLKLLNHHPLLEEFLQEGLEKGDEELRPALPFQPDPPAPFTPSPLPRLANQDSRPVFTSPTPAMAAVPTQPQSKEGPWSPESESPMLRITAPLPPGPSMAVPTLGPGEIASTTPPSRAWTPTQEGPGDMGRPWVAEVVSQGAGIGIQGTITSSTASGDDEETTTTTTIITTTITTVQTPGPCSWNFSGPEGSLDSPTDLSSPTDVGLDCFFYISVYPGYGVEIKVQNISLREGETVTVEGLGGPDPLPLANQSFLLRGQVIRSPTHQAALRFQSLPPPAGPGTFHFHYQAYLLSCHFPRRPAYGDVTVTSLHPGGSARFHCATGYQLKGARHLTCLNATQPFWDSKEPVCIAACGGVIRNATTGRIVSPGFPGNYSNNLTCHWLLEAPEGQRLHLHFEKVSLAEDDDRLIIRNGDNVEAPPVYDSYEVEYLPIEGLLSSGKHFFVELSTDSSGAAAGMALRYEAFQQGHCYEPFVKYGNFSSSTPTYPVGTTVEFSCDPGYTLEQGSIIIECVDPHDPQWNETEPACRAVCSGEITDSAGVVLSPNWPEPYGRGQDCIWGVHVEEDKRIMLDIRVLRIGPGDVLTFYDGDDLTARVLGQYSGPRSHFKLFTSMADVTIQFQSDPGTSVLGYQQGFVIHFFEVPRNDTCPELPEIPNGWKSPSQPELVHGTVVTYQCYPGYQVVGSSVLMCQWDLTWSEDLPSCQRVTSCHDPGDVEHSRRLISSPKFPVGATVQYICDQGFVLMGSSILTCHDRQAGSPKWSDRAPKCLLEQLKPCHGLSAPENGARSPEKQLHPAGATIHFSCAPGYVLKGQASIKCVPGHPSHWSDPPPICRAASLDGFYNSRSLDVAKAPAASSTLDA
- Procedure Text: Fine epitope mapping (phage display peptide library or yeast-displayed SEZ6 ECD mutants)
- Type: binding
- Condition Parameters: epitope conformational (discontinuous) or linear

| Molecule | Discontinuous |
| --- | --- |
| SC17.36: murine anti-SEZ6 antibody (antibody, V domains shown, Murine SC17.36 VH; Murine SC17.36 VL, murine anti-SEZ6 antibody) VH: EVQLQESGPSLVKPSQSQSLTCSVTGDSITSDYWNWIRKFPGKKVEYMGYINYSGSTYYNPSLKSRISITRDTSKNQYYLQLNSVTSEDTATYYCARTSYYNKFLPFAYWGQGTLVTVSA VL: QIVLTQSPALMSASPGEKVTMTCSASSSVSYMYWYQQKPRSSPKPWIYLTSNLASGVPARFSGSGSGTSYSLTISSMEAEDAATYYCQQWSSNPPTFGGGTKLEIK | Yes |
| SC17.34: murine anti-SEZ6 antibody (antibody, V domains shown, Murine SC17.34 VH; Murine SC17.34 VL, murine anti-SEZ6 antibody) VH: EVQLQQSGPELVKPGSSVKISCKASGYTFTDYNMDWVKQSHGKRLEWIGYIYPDNGGAGYNQKFKGKATLTVDKSSSTAYMELRSLTSEDSAVYYCSRSITTAWFAYWGQGTLVTVSA VL: DIKMTQSPSSMYASLGERVTITCKASQDINSYLSWFQQKPGKSPKTLIYRANRLVDGVPSRFSGSGSGQDYSLTISSLEYEDMGIYYCLQYDEFPPTFGGGTKLEIK | Yes |
| SC17.24: murine anti-SEZ6 antibody; duplicate sequence of SC17.2 (antibody, V domains shown, Murine SC17.2 VH; Murine SC17.2 VL) VH: QVQLQQSDAELVKPGASVKISCKVSGYTFTDHTIHWMKQRPEQGLEWIGYIYPRDGSTKYNEEFKGKATLTADKSSSTAYMQLNSLTSEDSAVYFCARSYSNYFDYWGQGTTLTVSS VL: DIVMSQSPSSLAVSVGEKVTMSCKSSQSLLYSSNQKSYLAWYQQKPGQSPKLLIYWASTRESGVPDRFTGSGSGTDFTLTISSVQAEDLAVYYCKQSYNLRTFGGGTKLEIK | No |
| SC17.191: murine anti-SEZ6 antibody (antibody, V domains shown, Murine SC17.191 VH; Murine SC17.191 VL, murine anti-SEZ6 antibody) VH: EVQLQQSGPELMKPGASVKMSCKASGYTFTDYNMHWVKQNQGKSLEWIGEINPNTGGTGYNQKFKDKATLTVDKSSSTAYMELRSLTSEDSAVYYCARIPSLRRYYFDYWGQGTTLTVSS VL: QIVLTQSPAIMSASPGEKVTMTCSASSSVSYMHWYQQKSGTSPKRWIYDTSKLASGVPARFTGSGSGTSYSLTISSMEAEDAATYYCQQWSSSPPTFGAGTKLELK | Yes |
